- assay remarks: In vitro aqueous solubility of BZD compounds with or without HPßCD (10%)
- test conditions: 25 °C, pH 7.4, aqueous buffer, thermodynamic from solid
- Procedure: BZD solubilities were determined in aqueous solutions at pH values of 1.2 (HCl/KCl) and 7.4 (KH2PO4) with or without HPßCD (10%). An excess amount of ABZ, ABZSO, MBZ, OFZ or FLBZ was suspended in glass tubes containing 10 mL of each medium. The tubes were placed in a water bath at 25°C with a constant shaken rate of 100 strokes/min for two weeks (Yamato BT-31, Yamato Scientific Co., Japan). […] After filtration, samples were analyzed for drug quantification by HPLC following the method described below. […]
measured metric: solubility at 2 weeks (µg/mL)
# unit: µg/mL | format: bare number

Exercise: What value of solubility at 2 weeks has been recorded for this entry: `CCCSc1ccc2nc(NC(=O)OC)[nH]c2c1`
Key: 4.6

----------
- assay remarks: In vitro aqueous solubility of BZD compounds with or without HPßCD (10%)
- test conditions: 25 °C, pH 7.4, aqueous with cosolvent or surfactant or cyclodextrin, thermodynamic from solid
- Experimental: BZD solubilities were determined in aqueous solutions at pH values of 1.2 (HCl/KCl) and 7.4 (KH2PO4) with or without HPßCD (10%). An excess amount of ABZ, ABZSO, MBZ, OFZ or FLBZ was suspended in glass tubes containing 10 mL of each medium. The tubes were placed in a water bath at 25°C with a constant shaken rate of 100 strokes/min for two weeks (Yamato BT-31, Yamato Scientific Co., Japan). […] After filtration, samples were analyzed for drug quantification by HPLC following the method described below. […]
measured metric: solubility at 2 weeks (µg/mL)
# unit: µg/mL | format: bare number

Exercise: What value of solubility at 2 weeks has been recorded for this entry: CCCSc1ccc2nc(NC(=O)OC)[nH]c2c1 [Albendazole]
Key: 43

----------
- assay remarks: In vitro aqueous solubility of BZD compounds with or without HPßCD (10%)
- test conditions: aqueous solution (HCl/KCl) with 10% HPβCD, 25 °C, pH 1.2, aqueous with cosolvent or surfactant or cyclodextrin, thermodynamic from solid
- Protocol: BZD solubilities were determined in aqueous solutions at pH values of 1.2 (HCl/KCl) and 7.4 (KH2PO4) with or without HPßCD (10%). An excess amount of ABZ, ABZSO, MBZ, OFZ or FLBZ was suspended in glass tubes containing 10 mL of each medium. The tubes were placed in a water bath at 25°C with a constant shaken rate of 100 strokes/min for two weeks (Yamato BT-31, Yamato Scientific Co., Japan). […] After filtration, samples were analyzed for drug quantification by HPLC following the method described below. […]
measured metric: solubility at 2 weeks
Write your answer as a measured quantity: the number, then the unit.

Exercise: What value of solubility at 2 weeks has been recorded for this entry: COC(=O)Nc1nc2ccc([S+]([O-])c3ccccc3)cc2[nH]1 (centres unmarked)
Key: 1900 µg/mL

Exercise: What value of solubility at 2 weeks has been recorded for this entry: `COC(=O)Nc1nc2cc(C(=O)c3ccc(F)cc3)ccc2[nH]1`
Key: 2250 µg/mL

----------
- assay remarks: In vitro aqueous solubility of BZD compounds with or without HPßCD (10%)
- test conditions: 25 °C, pH 1.2, simulated gastric fluid, thermodynamic from solid
- Protocol: BZD solubilities were determined in aqueous solutions at pH values of 1.2 (HCl/KCl) and 7.4 (KH2PO4) with or without HPßCD (10%). An excess amount of ABZ, ABZSO, MBZ, OFZ or FLBZ was suspended in glass tubes containing 10 mL of each medium. The tubes were placed in a water bath at 25°C with a constant shaken rate of 100 strokes/min for two weeks (Yamato BT-31, Yamato Scientific Co., Japan). […] After filtration, samples were analyzed for drug quantification by HPLC following the method described below. […]
measured metric: solubility at 2 weeks (µg/mL)
# unit: µg/mL | format: bare number

Exercise: What value of solubility at 2 weeks has been recorded for this entry: CCCSc1ccc2nc(NC(=O)OC)[nH]c2c1 [Albendazole]
Key: 406

----------
- assay remarks: In vitro aqueous solubility of BZD compounds with or without HPßCD (10%)
- test conditions: aqueous solution (HCl/KCl) without HPβCD, 25 °C, pH 1.2, simulated gastric fluid, thermodynamic from solid
Recorded solubility at 2 weeks, one value per entry.
Write your answer as a measured quantity: the number, then the unit.

compound: COC(=O)Nc1nc2cc(C(=O)c3ccc(F)cc3)ccc2[nH]1
value reported: 29.6 µg/mL

For the next question, use this compound.
Exercise: What value of solubility at 2 weeks has been recorded for this entry: COC(=O)Nc1nc2ccc([S+]([O-])c3ccccc3)cc2[nH]1 (centres unmarked)
Key: 420 µg/mL

----------
- assay remarks: In vitro aqueous solubility of BZD compounds with or without HPßCD (10%)
- test conditions: aqueous solution (KH2PO4) with 10% HPβCD, 25 °C, pH 7.4, aqueous with cosolvent or surfactant or cyclodextrin, thermodynamic from solid
Recorded solubility at 2 weeks, one value per entry.
# unit: µg/mL | format: bare number

molecule: COC(=O)Nc1nc2ccc([S+]([O-])c3ccccc3)cc2[nH]1 (centres unmarked)
solubility at 2 weeks [µg/mL]: 348

For the next question, use this molecule.
Exercise: What value of solubility at 2 weeks has been recorded for this entry: `COC(=O)Nc1nc2cc(C(=O)c3ccc(F)cc3)ccc2[nH]1`
Key: 164
